# System: Providencia rettgeri
# assay_details: Antibacterial activity against gentamicin-resistant Proteus rettgeri clinical isolate assessed as susceptible isolates after 18 hrs by agar dilution method
# Assay type: functional
Below: a set of entries, each annotated with reported Activity.

[
  {
    "compound": "CCN[C@@H]1C[C@H](N)[C@@H](O[C@@H]2OC(C(C)N)=CC[C@@H]2N)[C@H](O)[C@H]1O[C@H]1OC[C@](C)(O)[C@H](NC)[C@H]1O (some centres undefined)",
    "Activity / %": 53.3
  },
  {
    "compound": "CCN[C@@H]1C[C@H](N)[C@@H](O[C@H]2OC(CN)=CC[C@H]2N)[C@H](O)[C@H]1O[C@H]1OC[C@](C)(O)[C@H](NC)[C@H]1O",
    "Activity / %": 40
  },
  {
    "compound": "NCC[C@H](O)C(=O)N[C@@H]1C[C@H](N)[C@@H](O[C@H]2O[C@H](CN)[C@@H](O)[C@H](O)[C@H]2O)[C@H](O)[C@H]1O[C@H]1O[C@H](CO)[C@@H](O)[C@H](N)[C@H]1O",
    "Activity / %": 80
  },
  {
    "compound": "CN[C@@H]1[C@@H](O)[C@@H](O[C@@H]2[C@@H](O)[C@H](O[C@@H]3OC(C(C)N)=CC[C@@H]3N)[C@@H](N)C[C@H]2N)OC[C@]1(C)O (some centres undefined)",
    "Activity / %": 20
  }
]

---

Known MIC90 of a selection of molecules
# System: Morganella morganii
# assay_details: Antibacterial activity against gentamicin-resistant Morganella morganii clinical isolate after 18 hrs by agar dilution method
# Type: functional

[
  {
    "molecule": "NCC[C@H](O)C(=O)N[C@@H]1C[C@H](N)[C@@H](O[C@H]2O[C@H](CN)[C@@H](O)[C@H](O)[C@H]2O)[C@H](O)[C@H]1O[C@H]1O[C@H](CO)[C@@H](O)[C@H](N)[C@H]1O [AMIKACIN]",
    "MIC90": "4 µg/mL"
  },
  {
    "molecule": "CN[C@@H]1[C@@H](O)[C@@H](O[C@@H]2[C@@H](O)[C@H](O[C@@H]3OC(C(C)N)=CC[C@@H]3N)[C@@H](N)C[C@H]2N)OC[C@]1(C)O (some centres undefined) [VERDAMICIN]",
    "MIC90": "128 µg/mL"
  },
  {
    "molecule": "CCN[C@@H]1C[C@H](N)[C@@H](O[C@H]2OC(CN)=CC[C@H]2N)[C@H](O)[C@H]1O[C@H]1OC[C@](C)(O)[C@H](NC)[C@H]1O [NETILMICIN]",
    "MIC90": "16 µg/mL"
  },
  {
    "molecule": "CCN[C@@H]1C[C@H](N)[C@@H](O[C@@H]2OC(C(C)N)=CC[C@@H]2N)[C@H](O)[C@H]1O[C@H]1OC[C@](C)(O)[C@H](NC)[C@H]1O (some centres undefined) [VERTILMICIN]",
    "MIC90": "32 µg/mL"
  }
]

---

# Tested on: Klebsiella pneumoniae
# assay_details: Antibacterial activity against gentamicin-resistant Klebsiella pneumoniae clinical isolate after 18 hrs by agar dilution method
# Format: functional
readout_type: MIC50

[
  {
    "compound": "CN[C@@H]1[C@@H](O)[C@@H](O[C@@H]2[C@@H](O)[C@H](O[C@@H]3OC(C(C)N)=CC[C@@H]3N)[C@@H](N)C[C@H]2N)OC[C@]1(C)O (some centres undefined) [VERDAMICIN]",
    "readout_type": "MIC50",
    "recorded_result": "128 µg/mL"
  },
  {
    "compound": "CCN[C@@H]1C[C@H](N)[C@@H](O[C@@H]2OC(C(C)N)=CC[C@@H]2N)[C@H](O)[C@H]1O[C@H]1OC[C@](C)(O)[C@H](NC)[C@H]1O (some centres undefined) [VERTILMICIN]",
    "readout_type": "MIC50",
    "recorded_result": "16 µg/mL"
  },
  {
    "compound": "CCN[C@@H]1C[C@H](N)[C@@H](O[C@H]2OC(CN)=CC[C@H]2N)[C@H](O)[C@H]1O[C@H]1OC[C@](C)(O)[C@H](NC)[C@H]1O [NETILMICIN]",
    "readout_type": "MIC50",
    "recorded_result": "32 µg/mL"
  },
  {
    "compound": "NCC[C@H](O)C(=O)N[C@@H]1C[C@H](N)[C@@H](O[C@H]2O[C@H](CN)[C@@H](O)[C@H](O)[C@H]2O)[C@H](O)[C@H]1O[C@H]1O[C@H](CO)[C@@H](O)[C@H](N)[C@H]1O [AMIKACIN]",
    "readout_type": "MIC50",
    "recorded_result": "1 µg/mL"
  }
]

---

# System: Citrobacter koseri
# assay_details: Antibacterial activity against gentamicin-resistant Citrobacter diversus clinical isolate assessed as susceptible isolates after 18 hrs by agar dilution method
# Format: functional
readout_type: Activity (%)

[
  {
    "compound": "NCC[C@H](O)C(=O)N[C@@H]1C[C@H](N)[C@@H](O[C@H]2O[C@H](CN)[C@@H](O)[C@H](O)[C@H]2O)[C@H](O)[C@H]1O[C@H]1O[C@H](CO)[C@@H](O)[C@H](N)[C@H]1O [AMIKACIN]",
    "recorded_result": 35.7
  },
  {
    "compound": "CCN[C@@H]1C[C@H](N)[C@@H](O[C@H]2OC(CN)=CC[C@H]2N)[C@H](O)[C@H]1O[C@H]1OC[C@](C)(O)[C@H](NC)[C@H]1O [NETILMICIN]",
    "recorded_result": 7.1
  },
  {
    "compound": "CN[C@@H]1[C@@H](O)[C@@H](O[C@@H]2[C@@H](O)[C@H](O[C@@H]3OC(C(C)N)=CC[C@@H]3N)[C@@H](N)C[C@H]2N)OC[C@]1(C)O (some centres undefined) [VERDAMICIN]",
    "recorded_result": 0
  },
  {
    "compound": "CCN[C@@H]1C[C@H](N)[C@@H](O[C@@H]2OC(C(C)N)=CC[C@@H]2N)[C@H](O)[C@H]1O[C@H]1OC[C@](C)(O)[C@H](NC)[C@H]1O (some centres undefined) [VERTILMICIN]",
    "recorded_result": 7.1
  }
]

---

# Tested on: Pseudomonas sp.
# assay_details: Antibacterial activity against gentamicin-resistant Pseudomonas spp. clinical isolate assessed as susceptible isolates after 18 hrs by agar dilution method
# Type: functional

[
  {
    "molecule": "CCN[C@@H]1C[C@H](N)[C@@H](O[C@@H]2OC(C(C)N)=CC[C@@H]2N)[C@H](O)[C@H]1O[C@H]1OC[C@](C)(O)[C@H](NC)[C@H]1O (some centres undefined)",
    "endpoint_unit": "%",
    "Activity": 7.7
  },
  {
    "molecule": "NCC[C@H](O)C(=O)N[C@@H]1C[C@H](N)[C@@H](O[C@H]2O[C@H](CN)[C@@H](O)[C@H](O)[C@H]2O)[C@H](O)[C@H]1O[C@H]1O[C@H](CO)[C@@H](O)[C@H](N)[C@H]1O",
    "endpoint_unit": "%",
    "Activity": 7.7
  },
  {
    "molecule": "CN[C@@H]1[C@@H](O)[C@@H](O[C@@H]2[C@@H](O)[C@H](O[C@@H]3OC(C(C)N)=CC[C@@H]3N)[C@@H](N)C[C@H]2N)OC[C@]1(C)O (some centres undefined)",
    "endpoint_unit": "%",
    "Activity": 3.8
  },
  {
    "molecule": "CCN[C@@H]1C[C@H](N)[C@@H](O[C@H]2OC(CN)=CC[C@H]2N)[C@H](O)[C@H]1O[C@H]1OC[C@](C)(O)[C@H](NC)[C@H]1O",
    "endpoint_unit": "%",
    "Activity": 0
  }
]

---

# Test system: Acinetobacter calcoaceticus
# assay_details: Antibacterial activity against gentamicin-resistant Acinetobacter calcoaceticus clinical isolate assessed as susceptible isolates after 18 hrs by agar dilution method
# Assay type: functional
readout_type: Activity (%)

[
  {
    "compound": "CN[C@@H]1[C@@H](O)[C@@H](O[C@@H]2[C@@H](O)[C@H](O[C@@H]3OC(C(C)N)=CC[C@@H]3N)[C@@H](N)C[C@H]2N)OC[C@]1(C)O (some centres undefined) [VERDAMICIN]",
    "readout_type": "Activity",
    "endpoint_unit": "%",
    "recorded_result": 16
  },
  {
    "compound": "CCN[C@@H]1C[C@H](N)[C@@H](O[C@H]2OC(CN)=CC[C@H]2N)[C@H](O)[C@H]1O[C@H]1OC[C@](C)(O)[C@H](NC)[C@H]1O [NETILMICIN]",
    "readout_type": "Activity",
    "endpoint_unit": "%",
    "recorded_result": 20
  },
  {
    "compound": "NCC[C@H](O)C(=O)N[C@@H]1C[C@H](N)[C@@H](O[C@H]2O[C@H](CN)[C@@H](O)[C@H](O)[C@H]2O)[C@H](O)[C@H]1O[C@H]1O[C@H](CO)[C@@H](O)[C@H](N)[C@H]1O [AMIKACIN]",
    "readout_type": "Activity",
    "endpoint_unit": "%",
    "recorded_result": 48
  },
  {
    "compound": "CCN[C@@H]1C[C@H](N)[C@@H](O[C@@H]2OC(C(C)N)=CC[C@@H]2N)[C@H](O)[C@H]1O[C@H]1OC[C@](C)(O)[C@H](NC)[C@H]1O (some centres undefined) [VERTILMICIN]",
    "readout_type": "Activity",
    "endpoint_unit": "%",
    "recorded_result": 24
  }
]
